# credit: patent US4812465A

Experiment: Determination of the LD50 by i.v. administration
Format: in vivo
Details: rat, in vivo, iv, rats, male

{"columns": ["compound", "LD50 (mg/kg)"],
 "data": [
  ["Cl.Cl.Clc1ccc(SCCCNC(Cn2ccnc2)c2ccc(Cl)cc2Cl)cc1 (stereo not shown)", 70.7]
]}

----------
System: Microsporum canis
# MIC per record follows
quantity.kind: MIC

{"columns": ["molecule", "assay.system", "quantity.kind", "result"],
 "data": [
  ["COc1ccc(OCCCNC(Cn2ccnc2)c2ccc(Cl)cc2Cl)cc1 (stereo not shown)", "Microsporum canis", "MIC", "50 µg/mL"],
  ["Cc1ccc(OCCCNC(Cn2cncn2)c2ccc(Cl)cc2Cl)cc1 (stereo not shown)", "Microsporum canis", "MIC", "3.12 µg/mL"],
  ["Clc1ccc(C(Cn2ccnc2)NCCCSc2c(Cl)cccc2Cl)c(Cl)c1 (stereo not shown)", "Microsporum canis", "MIC", "12.5 µg/mL"],
  ["Clc1ccc(SCCCNC(Cn2ccnc2)c2cccc3ccccc23)cc1 (stereo not shown)", "Microsporum canis", "MIC", "1.56 µg/mL"],
  ["CN(CCCOc1ccc(Br)cc1)C(Cn1cncn1)c1ccc(Cl)cc1Cl (stereo not shown)", "Microsporum canis", "MIC", "3.12 µg/mL"],
  ["CN(CCCOc1ccc(Cl)cc1)C(Cn1ccnc1)c1ccc(Cl)cc1Cl (stereo not shown)", "Microsporum canis", "MIC", "1.56 µg/mL"],
  ["Clc1ccc(C(Cn2cncn2)NCCCSc2ccc(Br)cc2)c(Cl)c1 (stereo not shown)", "Microsporum canis", "MIC", "100 µg/mL"],
  ["Clc1ccc(C(Cn2cncn2)NCCCOc2c(Cl)cccc2Cl)c(Cl)c1 (stereo not shown)", "Microsporum canis", "MIC", "25 µg/mL"],
  ["Clc1ccc(SCCCCCNC(Cn2ccnc2)c2ccc(Cl)cc2Cl)cc1 (stereo not shown)", "Microsporum canis", "MIC", "12.5 µg/mL"],
  ["Clc1ccc(SCCCNC(Cn2cncn2)c2ccc(Cl)cc2)cc1 (stereo not shown)", "Microsporum canis", "MIC", "12.5 µg/mL"],
  ["Clc1ccc(SCCNC(Cn2ccnc2)c2ccc(Cl)cc2Cl)cc1 (stereo not shown)", "Microsporum canis", "MIC", "0.78 µg/mL"],
  ["Cl.Cl.Clc1ccc(SCCCNC(Cn2ccnc2)c2ccc(Cl)cc2Cl)cc1 (stereo not shown)", "Microsporum canis", "MIC", "0.39 µg/mL"],
  ["CN(CCCOc1ccc(I)cc1)C(Cn1ccnc1)c1ccc(Cl)cc1Cl (stereo not shown)", "Microsporum canis", "MIC", "1.56 µg/mL"],
  ["Clc1ccc(SCCCNC(Cn2cncn2)c2ccc(Cl)cc2Cl)cc1 (stereo not shown)", "Microsporum canis", "MIC", "6.25 µg/mL"],
  ["Clc1ccc(SCCCNC(Cn2ccnc2)c2ccc(Cl)cc2Cl)cc1 (stereo not shown)", "Microsporum canis", "MIC", "1.56 µg/mL"],
  ["Fc1ccc(OCCCNC(Cn2ccnc2)c2ccc(Cl)cc2Cl)cc1 (stereo not shown)", "Microsporum canis", "MIC", "12.5 µg/mL"],
  ["Clc1ccc(OCCCCNC(Cn2cncn2)c2ccc(Cl)cc2Cl)cc1 (stereo not shown)", "Microsporum canis", "MIC", "25 µg/mL"],
  ["Clc1ccc(OCCNC(Cn2cncn2)c2ccc(Cl)cc2Cl)cc1 (stereo not shown)", "Microsporum canis", "MIC", "12.5 µg/mL"],
  ["COc1ccc(SCCNC(Cn2ccnc2)c2ccc(Cl)cc2Cl)cc1 (stereo not shown)", "Microsporum canis", "MIC", "12.5 µg/mL"]
]}
